Target: Monoacylglycerol lipase ABHD6 (Homo sapiens) (UniProt Q9BV23)
Sequence (Q9BV23 whole entry): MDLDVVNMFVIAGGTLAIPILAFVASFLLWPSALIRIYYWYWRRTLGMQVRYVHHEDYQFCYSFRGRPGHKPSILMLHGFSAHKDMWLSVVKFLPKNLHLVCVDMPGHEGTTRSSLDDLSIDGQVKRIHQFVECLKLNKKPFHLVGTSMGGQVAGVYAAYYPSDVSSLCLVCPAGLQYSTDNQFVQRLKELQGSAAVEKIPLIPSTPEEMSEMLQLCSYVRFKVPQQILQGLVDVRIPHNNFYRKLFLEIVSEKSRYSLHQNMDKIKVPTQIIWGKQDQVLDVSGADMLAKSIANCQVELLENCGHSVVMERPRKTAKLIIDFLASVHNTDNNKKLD
Assay: Inhibition of human ABHD6 expressed in HEK293 cells assessed as remaining enzyme activity by measuring reduction in glycerol production from 1-AG hydrolysis at 1 uM pre-incubated for 30 mins before 1-AG substrate addition and measured 90 mins post substrate addition by fluorescence method
Type: cell-based
Observation type: Activity

Example compounds with recorded Activity:
INSERT INTO results (given_smiles, measured) VALUES
  ('COc1nn(Cc2ccc(NC(=O)c3ccccc3)cc2)c(=O)o1', '88%'),
  ('COc1nn(Cc2cccc([N+](=O)[O-])c2)c(=O)o1', '65%'),
  ('COc1nn(Cc2cccc(OCc3ccccc3)c2)c(=O)o1', '53%'),
  ('COc1nn(Cc2ccccc2[N+](=O)[O-])c(=O)o1', '57%');

Activity in this record for COc1nn(Cc2ccc(Oc3ccccc3)cc2)c(=O)o1 : 77%

Activity in this record for COc1nn(Cc2cccc3ccccc23)c(=O)o1 : 64%

Activity in this record for COc1nn(Cc2ccccc2)c(=O)o1 : 61%
